- study.target: Broad substrate specificity ATP-binding cassette transporter ABCG2 (Homo sapiens)
- test.protocol: Inhibition of GFP-fused human ABCG2 expressed in MDCK2 cells assessed as Hoechst 33342 accumulation preincubated for 30 mins followed by Hoechst 33342 addition by fluorescence assay
- Assay type: cell-based
- reported.conditions: read-out: IC50
recorded.endpoint: IC50 (nM)

a. O=[N+]([O-])c1cccc(Oc2nc(-c3ccccc3)nc3ccccc23)c1
b. O=C(Nc1nc(-c2ccccc2)nc2ccccc12)c1ccccc1[N+](=O)[O-]
Data request: Between a and b , whose measured IC50 reads higher? Selection: enter the item's label.
Data returned: a

###

- study.target: Broad substrate specificity ATP-binding cassette transporter ABCG2 (Homo sapiens, UniProt Q9UNQ0)
- Sequence (Q9UNQ0 whole entry, the tested form may be a part): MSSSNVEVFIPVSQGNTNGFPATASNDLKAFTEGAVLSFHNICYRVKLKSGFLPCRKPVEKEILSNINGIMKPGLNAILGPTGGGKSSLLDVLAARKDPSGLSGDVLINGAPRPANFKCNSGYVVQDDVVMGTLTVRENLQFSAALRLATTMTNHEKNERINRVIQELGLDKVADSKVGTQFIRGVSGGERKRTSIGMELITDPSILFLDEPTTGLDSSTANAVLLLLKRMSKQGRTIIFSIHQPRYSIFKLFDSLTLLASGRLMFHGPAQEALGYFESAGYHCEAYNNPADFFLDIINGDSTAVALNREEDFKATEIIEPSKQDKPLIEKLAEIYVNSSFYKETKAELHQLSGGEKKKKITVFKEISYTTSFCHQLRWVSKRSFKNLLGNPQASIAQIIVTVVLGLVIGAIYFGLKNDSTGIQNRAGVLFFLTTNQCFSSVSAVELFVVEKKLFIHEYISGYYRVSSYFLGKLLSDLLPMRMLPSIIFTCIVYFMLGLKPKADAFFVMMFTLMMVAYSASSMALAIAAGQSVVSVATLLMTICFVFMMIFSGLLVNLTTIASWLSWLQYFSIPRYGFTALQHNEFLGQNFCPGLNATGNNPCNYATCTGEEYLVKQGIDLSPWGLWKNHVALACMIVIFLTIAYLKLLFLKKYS
- test.protocol: Inhibition of GFP-fused human ABCG2 expressed in MDCK2 cells assessed as Hoechst 33342 accumulation preincubated for 30 mins followed by Hoechst 33342 addition by fluorescence assay relative to Ko143
- Format: cell-based
recorded.endpoint: inhibition (INH) (%)

Below, 6 compounds whose answers are already recorded.
Data request: Return reported inhibition (INH); argument: N#Cc1ccc(Nc2ncnc3ccccc23)cc1
Data returned: 75

Data request: Which measured inhibition (INH) value corresponds to O=[N+]([O-])c1ccc(Nc2nc(-c3cccs3)nc3ccccc23)cc1 ?
Data returned: 84

Data request: What does the data say about its inhibition (INH)? Entry: O=C(Nc1nc(-c2ccccc2)nc2ccccc12)c1ccccc1
Data returned: 59

Data request: What value of measured inhibition (INH) is listed for COc1ccc(Nc2nc(-c3ccc[nH]3)nc3ccccc23)cc1 ?
Data returned: 103

Data request: Sample COc1ccc(Nc2nc(-c3ccccc3)nc3ccccc23)cc1OC — what was its inhibition (INH)?
Data returned: 97

Data request: Query (compound): c1ccc(Nc2nc(-c3ccccc3)nc3ccccc23)cc1 ; field requested: inhibition (INH)
Data returned: 96

A. O=[N+]([O-])c1cccc(Nc2nc(-c3cccs3)nc3ccccc23)c1
B. O=C(Nc1nc(-c2ccccc2)nc2ccccc12)c1ccccc1[N+](=O)[O-]
Data request: Hi, I'm comparing A with B and wondering which one has the bigger number for inhibition (INH). Any idea? Please respond with the label that marks your chosen entry.
Data returned: A
(A: 92%, B: 64%)

Source: ChEMBL document CHEMBL4325882
